test system: KM12; experiment: NCI tumour cell line growth inhibition, 48 h
Active and inactive are the calls of the source. No stated cut-off is given here; in the data, active = GI50 up to about 1.1 µM and inactive = higher.
propertyMeasured: GI50

Check out these entries, answers already filled in.
CC(C)(C)[C@H]1CC[C@@](O)(c2ccccc2)CC1.CC(C)(C)[C@H]1CC[C@](O)(c2ccccc2)CC1 : 22.8 µM (inactive)
CC(=NNC(=S)Nc1ccc(C)cc1)c1cccc(C(C)=NNC(=S)Nc2ccc(C)cc2)n1 : 13.8 µM (inactive)
Cc1ccnc(NS(=O)(=O)c2ccc(NC(=O)c3ccc4nc5ccccc5c(Nc5ccc(S(=O)(=O)Nc6nccc(C)n6)cc5)c4c3)cc2)n1 : 29 µM (inactive)
COc1cc2c(cc1OC)C(C1CC1)ON(C)CC2 (centres undefined) : > 100 µM (inactive)
O=C1OC(C(O)CO)C(O)=C1O (centres undefined) : > 100 µM (inactive)

Batch request: GI50 for each of the following compounds.
1. Cc1nn(-c2ccccc2)c(C)c1/C=N/NC(=O)c1sc(=S)n(-c2ccc(Cl)cc2)c1N
2. N=C(N)SCc1ccc(Cl)c2ccccc12.O=[N+]([O-])c1ccc(O)c([N+](=O)[O-])c1
3. O=C(Nc1ccccc1)N1CCNC1=S
4. O=c1/c(=C/c2cccc([N+](=O)[O-])c2)sc2nc3ccccc3n12

Out:
["8.3 µM (inactive)", "12.3 µM (inactive)", "> 100 µM (inactive)", "> 100 µM (inactive)"]

Count: 3. Required value per item: GI50.
1. N#Cc1c(O)nc2[nH]nc(/N=N\c3c(O)ccc4ccccc34)c2c1-c1ccc(Cl)cc1
2. N#C/C(=C\c1c(O)cc(O)cc1O)C(N)=O
3. Cn1c(-c2ccccc2)c2cc3nc4ccccc4nc3cc2c1-c1ccccc1

Out:
0.403 µM (active)
> 100 µM (inactive)
11.6 µM (inactive)

I'm hoping you can list GI50 for every compound here, please.
1. O=c1c(-c2ccccc2)nnc2n(Cc3ccccc3)c3ccccc3n12
2. [O-][S+]1Nc2c(Cl)cc(Cl)c(Cl)c2S1 (centres undefined)
3. CC1=C(C#N)C(C#N)(C#N)C(NN(C)C)C1 (centres undefined)
4. Nc1nc2c(c(-c3ccccc3Cl)n1)COC/C2=C\c1ccccc1Cl
5. COc1ccc2c(c1)CCC1=C/C(=N\NC(N)=O)CCC12C (centres undefined)
6. CC12OC3(C)OC(=O)C(c4ccccc4)(O1)C3(C)O2 (centres undefined)
7. N=c1oc2ccc(Cl)cc2cc1C(=O)Nc1ccccc1
8. Cc1c(-c2ccccc2)c(C#N)c2nnn(-c3ccc([N+](=O)[O-])cc3)c(=O)n12

Out:
1: > 100 µM (inactive); 2: > 100 µM (inactive); 3: 16.6 µM (inactive); 4: 17.9 µM (inactive); 5: > 10 µM (inactive); 6: > 100 µM (inactive); 7: 79.4 µM (inactive); 8: 12.7 µM (inactive)

Give GI50 for all compounds that follow.
1. CCOC(=O)CCC(NC(=O)c1ccc(Nc2cnc3ccc(C(F)(F)F)cc3n2)cc1)C(=O)OCC (centres undefined)
2. COc1ccc(-c2cc(O)c3ccc(F)cc3n2)cc1
3. O=C(O)CCSC(=O)Nc1ccccc1F
4. O=C(Cc1nc2c3c(ccc2nc1O)C(=O)c1ccccc1C3=O)C(=O)Nc1ccccc1[N+](=O)[O-]

Out:
24.2 µM (inactive)
77.4 µM (inactive)
> 100 µM (inactive)
18.7 µM (inactive)

Please go through the list and note GI50 for each compound.
1. CC(C(=O)c1ccc(Cl)cc1)C1OC(=O)C(Cl)=C1Cl (centres undefined)
2. CC(=O)N(CC(=O)C(=O)NNc1ccoc1)c1ccc(Cl)cc1
3. CC(=O)N1C(C(=O)NC2CCCCC2)CSC1c1ccccc1 (centres undefined)
4. O=C(c1ccc(Cl)c(Cl)c1)N(C(=S)OC12CC3CC(CC(C3)C1)C2)c1ccccc1
5. CC1(C)[C@H]2CC[C@](C)(C2)[C@]1(S)Cc1ccccn1

Out:
["33.9 µM (inactive)", "> 100 µM (inactive)", "> 100 µM (inactive)", "33.7 µM (inactive)", "42.9 µM (inactive)"]

Lab note: each compound below needs its GI50 filled in.
1. COc1cc(OC)c(C2(c3c(OC(C)C)c(=O)c3=O)SCCCS2)cc1OC
2. CCN(CC)C(=S)SS(=O)(=O)c1ccccc1[N+](=O)[O-]
3. COc1cc(/C=N/N=C2NCCN2)ccc1O
4. COc1ccc(Nc2n[nH]c(NS(=O)(=O)c3cc(C)c(Cl)cc3S)n2)cc1
5. O=c1cccc2n1CC1CNC[C@H]2C1
6. Nc1ncnc2c1cnn2COCC(O)CO (centres undefined)
7. CC(C)SC(=S)Sc1c(Cl)c(Cl)nc(Cl)c1Cl

Out:
1: > 100 µM (inactive); 2: > 35.4 µM (inactive); 3: > 100 µM (inactive); 4: > 100 µM (inactive); 5: > 100 µM (inactive); 6: > 100 µM (inactive); 7: 8.24 µM (inactive)

Answer for every listed entry: what is its GI50? The entries follow.
1. COc1ccc2c(c1)CCN1CCc3cc(OC)c(OC)cc3CC21 (centres undefined)
2. CC(C)=CCNc1ncnc2[nH]cnc12
3. Cc1cc(NCCCCCCCCNc2cc(C)nc3cc(N(C)C)ccc23)c2ccc(N(C)C)cc2n1

Out:
1: 88.5 µM (inactive); 2: 99.8 µM (inactive); 3: 2.82 µM (inactive)

The reported numbers originate from ChEMBL document CHEMBL1201862.
